Test: HCT116 colon cancer cell growth inhibition, primary screen, CellTiter-Glo luminescence, NPC library (AID 1117342)
Settings: at 20 µM (top of the series)
Each entry below carries its reported inhibition of viability.
Give the value in % but do not write % after it.

# annotated cases, reported inhibition of viability shown
Cc1c(C)n(CCN(C)C)c2ccc(C(=O)OCCN(C)C)cc12 | 27.7
NC(=O)C1(N2CCCCC2)CCN(CCCN2c3ccccc3CCc3ccc(Cl)cc32)CC1 | 99.4
CC(=O)c1ccc2c(c1)N(CCCN1CCC(CCO)CC1)c1ccccc1S2 | 77.2
COc1cc(C(=O)NCCCCCC(=O)O)cc(OC)c1OC | 6.2
O=C(OC1C[C@H]2CC[C@@H](C1)[N+]21CCCC1)C(O)(c1ccccc1)c1ccccc1 (stereo not given in full) | 7.13

Query block: Which inhibition of viability is listed for CN=C(NC#N)NCCSCc1csc(N=C(N)N)n1 ?
Result block: -2.7

Query block: Which inhibition of viability is listed for CC(C)n1c(/C=C/[C@@H](O)C[C@@H](O)CC(=O)O)c(-c2ccc(F)cc2)c2ccccc21 ?
Result block: 88.8

Query block: Which inhibition of viability is listed for CC(C)(C)c1ccc(C(O)CCCN2CCC(C(O)(c3ccccc3)c3ccccc3)CC2)cc1 (stereo not given) ?
Result block: 102

Query block: Which inhibition of viability is listed for O=S(=O)(O)Oc1ccc(C(c2ccc(OS(=O)(=O)O)cc2)c2ccccn2)cc1 ?
Result block: -5.5

Query block: Which inhibition of viability is listed for CCCCc1oc2ccc(NS(C)(=O)=O)cc2c1C(=O)c1ccc(OCCCN(CCCC)CCCC)cc1 ?
Result block: 99.3

---

Target: 6-phosphogluconate dehydrogenase, decarboxylating (Homo sapiens) (UniProt P52209)
Sequence (P52209 whole entry, looked up): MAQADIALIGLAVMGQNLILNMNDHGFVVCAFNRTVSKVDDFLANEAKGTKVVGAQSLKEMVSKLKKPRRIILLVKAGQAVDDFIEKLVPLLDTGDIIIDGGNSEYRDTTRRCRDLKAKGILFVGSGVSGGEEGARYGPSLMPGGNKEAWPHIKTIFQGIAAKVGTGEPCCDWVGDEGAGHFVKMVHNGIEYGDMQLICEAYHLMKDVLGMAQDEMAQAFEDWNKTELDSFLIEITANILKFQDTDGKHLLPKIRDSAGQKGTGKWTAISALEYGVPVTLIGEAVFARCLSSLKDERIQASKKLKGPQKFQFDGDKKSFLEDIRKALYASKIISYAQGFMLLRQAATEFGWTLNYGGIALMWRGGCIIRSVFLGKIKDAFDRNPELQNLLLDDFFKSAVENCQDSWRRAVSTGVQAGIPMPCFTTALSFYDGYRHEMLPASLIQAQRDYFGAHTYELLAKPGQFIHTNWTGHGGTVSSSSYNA
Assay: 6PGD enzyme inhibitors, primary screen, biochemical, human, recombinant enzyme, NADPH absorbance (AID 1159550)
Conditions: recombinant 6PGD, NADPH absorbance 341 nm; at 10 µM; stronger effect = higher value
Each entry below carries its reported inhibition.
Give the value in % but do not write % after it.

CS(=O)(=O)c1ccc(C2=C(c3ccccc3)C(=O)OC2)cc1 | -26.3
CCC(C)C(N)C(=O)N1CCCC1C(=O)NC(C(=O)O)C(C)CC (stereo not given) | -1.23
O=C(O)C1=C[C@@H](O)[C@@H](O)[C@H](O)C1 | 9.48
NC(Cn1ccc(=O)c(O)c1)C(=O)O (stereo not given) | 17.3
COC(=O)C1=C(C)NC(C)=C(C(=O)OC)C1c1ccccc1[N+](=O)[O-] | -13.6

Query block: Any idea what inhibition came out for CC(C)/C(O)=C1/C(=O)O[C@@H](c2ccoc2)[C@]2(C)C(O)[C@@H](O)[C@@]34OC5(C)OC67CC(C)(C(O)[C@]6(O)[C@@H](O)[C@]3(O5)C12)[C@H](CC(=O)O)[C@]74C (stereo not given in full) on 6-phosphogluconate dehydrogenase, decarboxylating (Homo sapiens) (UniProt P52209)?
Result block: 16.8

Query block: Any idea what inhibition came out for CCC(c1ccc(O)cc1)C(CC)c1ccc(O)cc1 (stereo not given) on 6-phosphogluconate dehydrogenase, decarboxylating (Homo sapiens) (UniProt P52209)?
Result block: -4.21

---

Assay: enhancers of glutamate uptake in motor neurons, MN-1 cell line (AID 1612);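 note: tested at 1 µM final; 0% = mean of DMSO vehicle wells on each plate; positive means more glutamate uptake than control and negative means less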
Settings: MN-1 motor neuron cells, stronger effect = higher value
Each entry below carries its reported glutamate uptake change.
Give the value in % but do not write % after it.

# annotated cases, reported glutamate uptake change shown
CCN(CC)Cc1ccc(Nc2ccnc3cc(Cl)ccc23)cc1O | 1.51
CCOC(=O)C(Cc1ccc(O)cc1)NC(C)=O (stereo unspecified) | -5.84
CC1(C)S[C@@H]2C(N3C(=O)[C@@H](c4ccccc4)NC3(C)C)C(=O)N2[C@H]1C(=O)O (stereo partly specified) | 4.63
CC[C@@H](CO)NCCN[C@@H](CC)CO | -22.3
CCN1CCCC1CNC(=O)c1cc(S(N)(=O)=O)ccc1OC (stereo unspecified) | -6.59

Query block: Which glutamate uptake change is listed for CON ?
Result block: 19.3

Query block: Which glutamate uptake change is listed for CC(C)NCC(O)COc1ccc(CC(N)=O)cc1 (stereo unspecified) ?
Result block: -9.65

Query block: Which glutamate uptake change is listed for CN1CCc2cccc3c2C1Cc1ccc(O)c(O)c1-3 (stereo unspecified) ?
Result block: 14

Query block: Which glutamate uptake change is listed for CC(C(=O)O)c1ccc(N2Cc3ccccc3C2=O)cc1 (stereo unspecified) ?
Result block: -13.2

Query block: Which glutamate uptake change is listed for CC(C)NCC(O)COc1cccc2[nH]ccc12 (stereo unspecified) ?
Result block: 11.9

Query block: Which glutamate uptake change is listed for C[N+](C)(C)CC(O)CC(=O)O (stereo unspecified) ?
Result block: -5.62

Query block: Which glutamate uptake change is listed for Cc1ccc(N(CC2=NCCN2)c2cccc(O)c2)cc1 ?
Result block: -12.3

Query block: Which glutamate uptake change is listed for CCCn1c(=O)c2[nH]c(C3CCCC3)nc2n(CCC)c1=O ?
Result block: -12.9

Query block: Which glutamate uptake change is listed for CC(C)NCC(O)COc1cccc2ccccc12 (stereo unspecified) ?
Result block: 4.46

Query block: Which glutamate uptake change is listed for CC(C(=O)O)c1cccc(C(=O)c2ccccc2)c1 (stereo unspecified) ?
Result block: -7.92

Query block: Which glutamate uptake change is listed for CN1CCN(C2=Nc3cc(Cl)ccc3Nc3ccccc32)CC1 ?
Result block: -8.51

Query block: Which glutamate uptake change is listed for NC1(C(=O)O)CCCC1 ?
Result block: 2.91

Query block: Which glutamate uptake change is listed for COc1c(C)c2c(c(O)c1C/C=C(\C)CCC(=O)O)C(=O)OC2 ?
Result block: -2.33

Query block: Which glutamate uptake change is listed for CN1C2CCC1CC(OC(=O)C(CO)c1ccccc1)C2 (stereo unspecified) ?
Result block: 7.04

Query block: Which glutamate uptake change is listed for O=C(O)CN(CCN(CC(=O)O)CC(=O)O)CC(=O)O ?
Result block: -23.4

Query block: Which glutamate uptake change is listed for Cn1c(=O)c2[nH]c(C3CCCC3)nc2n(C)c1=O ?
Result block: 10.7

Query block: Which glutamate uptake change is listed for CCCCCCCCCCCCCCCC(=O)OC/C=C(C)/C=C/C=C(C)/C=C/C1=C(C)CCCC1(C)C ?
Result block: 4.94

Query block: Which glutamate uptake change is listed for O=c1cc(-c2ccccc2)oc2c(O)c(O)ccc12 ?
Result block: 0.12

Query block: Which glutamate uptake change is listed for Cc1c(N)c(=O)n(-c2ccccc2)n1C ?
Result block: -10.8

Query block: Which glutamate uptake change is listed for CC(C)=CCC/C(C)=C/CO ?
Result block: 5.29

Query block: Which glutamate uptake change is listed for CC1(C)S[C@@H]2[C@H](NC(=O)Cc3ccccc3)C(=O)N2[C@H]1C(=O)O ?
Result block: 6.9

---

Experiment: viability loss in pontine glioma line – cell-based, SU-DIPG-XXV, MIPE5.0, CellTiter-Glo, qHTS, dose response (AID 1347065);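 note: cells exposed to compound for 48 hours before ATP readout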
Details: CellTiter-Glo ATP luminescence
Records with an inconclusive call do not appear. The source made the active and inactive calls. Cut-off not given; nearly all actives show AC50 up to about 26 µM.
// classify into 1 for active, 0 for inactive

Recorded results for 5 compounds are shown here.
Nc1ccn(C[C@@H](CO)OCP(=O)(O)O)c(=O)n1 | 0
Cc1cc(=O)oc2cc(O)ccc12 | 0
COc1cc(NCc2ccc3nc(N)nc(N)c3c2C)cc(OC)c1OC | 1
CNC(=O)c1cc(Oc2ccc(NC(=O)Nc3ccc(Cl)c(C(F)(F)F)c3)cc2)ccn1 | 1
CNC1CCCN(c2c(F)cc3c(=O)c(C(=O)O)cn(C4CC4)c3c2OC)C1 (stereo unspecified) | 0

Query block: Which outcome did this test record for the compound O=C(Nc1cc(C(F)(F)F)cc(C(F)(F)F)c1)c1cc(Cl)ccc1O ?
Result block: 1

Query block: Which outcome did this test record for the compound CCCCCCCCCCCCCCCCCCCCCCO ?
Result block: 0

Query block: Which outcome did this test record for the compound c1coc(CNc2ncnc3nc[nH]c23)c1 ?
Result block: 0

---

Each entry below carries its reported GLP1 secretion stimulation.
Test: glucagon-like peptide 1 release enhancers, primary assay, NCI-H716 cell line, NPC library (AID 1117341); note: reference of the scale not given here
Details: NCI-H716 cells, at 10 µM, stronger effect = higher value
Give the value in % but do not write % after it.

NCCc1ccn[nH]1 | 1.1
OCCOCCN1CCN(C(c2ccccc2)c2ccc(Cl)cc2)CC1 (stereo unspecified) | 13.3
Nc1c(CC(=O)O)cccc1C(=O)c1ccc(Br)cc1 | 0.3

Query block: Which GLP1 secretion stimulation is listed for CCCCC(=O)O[C@]1(C(=O)CO)CC[C@H]2[C@@H]3CCC4=CC(=O)CC[C@]4(C)[C@H]3[C@@H](O)C[C@@]21C ?
Result block: -1.5

Query block: Which GLP1 secretion stimulation is listed for O=C(NOCC1CC1)c1ccc(F)c(F)c1Nc1ccc(I)cc1Cl ?
Result block: 9.6

Query block: Which GLP1 secretion stimulation is listed for CC(C(=O)O)c1cccc(C(=O)c2ccccc2)c1 (stereo unspecified) ?
Result block: 1.2
